Attribute: inhibition at 25 ppm
tested on: Ustilago maydis (USTIMA); test: microbe, parasite or virus in culture; type: cell-based; settings: Mycosarcoma maydis, read-out: T12 USTIMA in vitro Growth Inhibition
REPORTED_PROPERTY: inhibition at 25 ppm

INSERT INTO results (molecule, recorded_result) VALUES
  ('COc1ccnc(C(=O)N[C@H]2COC(=O)[C@H](Cc3ccccc3)[C@@H](OC(=O)C(C)C)[C@H](C)OC2=O)c1OCSc1ccccc1 [Compound 19]', '< 80%'),
  ('COc1ccnc(C(=O)N[C@H]2COC(=O)[C@H](Cc3ccccc3)[C@@H](OC(=O)C(C)C)[C@H](C)OC2=O)c1OC(C)OC(C)=O (stereo partly drawn) [Compound 25]', '> 80%'),
  ('CCOC(=O)OCOc1c(OC)ccnc1C(=O)N[C@H]1COC(=O)[C@H](Cc2ccccc2)[C@@H](OC(=O)C(C)C)[C@H](C)OC1=O [Compound 45]', '< 80%'),
  ('COc1ccnc(C(=O)N[C@H]2COC(=O)[C@H](Cc3ccccc3)[C@@H](OCSC)[C@H](C)OC2=O)c1OCOC(=O)C1CCCC1 [Compound 73]', '> 80%'),
  ('COCCOCC(=O)OCOc1c(OC)ccnc1C(=O)N[C@H]1COC(=O)[C@H](Cc2ccccc2)[C@@H](OC(=O)C(C)C)[C@H](C)OC1=O [Compound 40]', '> 80%'),
  ('COc1ccnc(C(=O)N[C@H]2COC(=O)[C@H](Cc3ccccc3)[C@@H](OCC(C)C)[C@H](C)OC2=O)c1OCOC(C)=O [Compound 49]', '< 80%');

* * *

tested on: Ustilago maydis (USTIMA); assay: microbe, parasite or virus in culture; format: cell-based; conditions: Mycosarcoma maydis, read-out: T12 USTIMA in vitro Growth Inhibition
REPORTED_PROPERTY: inhibition at 25 ppm

INSERT INTO assay_data (compound, recorded_result) VALUES
  ('CCOC(C)C(=O)OCOc1c(OC)ccnc1C(=O)N[C@H]1COC(=O)[C@H](Cc2ccccc2)[C@@H](OC(=O)C(C)C)[C@H](C)OC1=O (stereo partly drawn)', '> 80%'),
  ('COC(=O)OCOc1c(OC)ccnc1C(=O)N[C@H]1COC(=O)[C@H](Cc2ccccc2)[C@@H](OC(=O)C(C)C)[C@H](C)OC1=O', '< 80%'),
  ('CCCC(=O)OCOc1c(OC)ccnc1C(=O)N[C@H]1COC(=O)[C@H](Cc2ccccc2)[C@@H](OCC(C)C)[C@H](C)OC1=O', '< 80%'),
  ('CCOCCC(=O)OCOc1c(OC)ccnc1C(=O)N[C@H]1COC(=O)[C@H](Cc2ccccc2)[C@@H](OC(=O)C(C)C)[C@H](C)OC1=O', '> 80%'),
  ('CCOCC(=O)OCOc1c(OC)ccnc1C(=O)N[C@H]1COC(=O)[C@H](Cc2ccccc2)[C@@H](OC(=O)C(C)C)[C@H](C)OC1=O', '< 80%'),
  ('COc1ccnc(C(=O)N[C@H]2COC(=O)[C@H](Cc3ccccc3)[C@@H](OC(=O)C(C)C)[C@H](C)OC2=O)c1OCOC(C)C', '> 80%'),
  ('CCCOCC(=O)OCOc1c(OC)ccnc1C(=O)N[C@H]1COC(=O)[C@H](Cc2ccccc2)[C@@H](OC(=O)C(C)C)[C@H](C)OC1=O', '< 80%'),
  ('COc1ccnc(C(=O)N[C@H]2COC(=O)[C@H](Cc3ccccc3)[C@@H](OC(=O)C(C)C)[C@H](C)OC2=O)c1OCOC(=O)C1CC1', '< 80%'),
  ('COCCOC(C)C(=O)OCOc1c(OC)ccnc1C(=O)N[C@H]1COC(=O)[C@H](Cc2ccccc2)[C@@H](OC(=O)C(C)C)[C@H](C)OC1=O (stereo partly drawn)', '< 80%'),
  ('COc1ccnc(C(=O)N[C@H]2COC(=O)[C@H](Cc3ccccc3)[C@@H](OC(=O)C(C)C)[C@H](C)OC2=O)c1OCSC', '< 80%'),
  ('COCC(=O)OCOc1c(OC)ccnc1C(=O)N[C@H]1COC(=O)[C@H](Cc2ccccc2)[C@@H](OC(=O)C(C)C)[C@H](C)OC1=O', '> 80%'),
  ('COCCOC(=O)OCOc1c(OC)ccnc1C(=O)N[C@H]1COC(=O)[C@H](Cc2ccccc2)[C@@H](OCC(C)C)[C@H](C)OC1=O', '> 80%');

These measurements were taken from patent US6861390B2.
